- ASSAYED TARGET: panel of 203 kinases (Homo sapiens, UniProt P11362)
- Construct: purchased DiscoverX (KINOMEscan)
- Sequence (P11362 22-822): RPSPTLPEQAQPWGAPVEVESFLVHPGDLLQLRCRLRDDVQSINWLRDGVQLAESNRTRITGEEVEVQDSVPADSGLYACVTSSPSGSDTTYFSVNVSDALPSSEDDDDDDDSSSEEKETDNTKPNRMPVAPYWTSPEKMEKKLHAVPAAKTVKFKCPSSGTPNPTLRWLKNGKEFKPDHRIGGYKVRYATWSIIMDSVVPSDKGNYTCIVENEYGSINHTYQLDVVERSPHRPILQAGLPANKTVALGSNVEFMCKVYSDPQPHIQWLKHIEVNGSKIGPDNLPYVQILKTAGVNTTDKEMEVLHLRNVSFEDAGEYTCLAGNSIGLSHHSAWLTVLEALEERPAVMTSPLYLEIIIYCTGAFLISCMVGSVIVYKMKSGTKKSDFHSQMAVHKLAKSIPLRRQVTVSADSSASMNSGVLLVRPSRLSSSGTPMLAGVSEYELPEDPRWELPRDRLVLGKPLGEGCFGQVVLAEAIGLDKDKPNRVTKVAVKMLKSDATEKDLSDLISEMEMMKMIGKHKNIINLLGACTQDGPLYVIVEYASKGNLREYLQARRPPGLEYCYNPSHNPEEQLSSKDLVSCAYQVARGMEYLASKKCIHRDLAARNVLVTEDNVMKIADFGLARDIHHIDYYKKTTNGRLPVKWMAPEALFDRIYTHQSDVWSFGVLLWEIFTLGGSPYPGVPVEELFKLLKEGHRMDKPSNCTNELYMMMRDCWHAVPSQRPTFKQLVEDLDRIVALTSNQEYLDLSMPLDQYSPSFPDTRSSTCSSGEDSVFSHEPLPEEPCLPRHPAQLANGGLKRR
- EXPERIMENTAL DETAILS: KINOMEscan competitive binding, whole panel
- CONDITION CONTEXT: 10 µM, n=1; kinase FGFR1; read-out: Percent inhibition FGFR1
MEASURED QUANTITY: inhibition at 10 µM (%)
Just the number please, in %, no unit attached.

{"STRUCTURE": "Clc1ccc(Nc2ncc(-c3ccccc3)s2)cc1", "MEASURED QUANTITY": "inhibition at 10 µM", "RECORDED VALUE": 0}
{"STRUCTURE": "Nc1ncc2c(-c3ccncc3)c[nH]c2n1", "MEASURED QUANTITY": "inhibition at 10 µM", "RECORDED VALUE": 0}
{"STRUCTURE": "COc1ccc(Nc2nccc(-c3cnn4ncccc34)n2)cc1", "MEASURED QUANTITY": "inhibition at 10 µM", "RECORDED VALUE": 0}
{"STRUCTURE": "Cc1ccc(O)cc1Nc1ccnc(Nc2cccc(C(N)=O)c2)n1", "MEASURED QUANTITY": "inhibition at 10 µM", "RECORDED VALUE": 0}
{"STRUCTURE": "CN1CCN(c2ccc(Nc3nccc(-c4cnn5ncccc45)n3)cc2C#N)CC1", "MEASURED QUANTITY": "inhibition at 10 µM", "RECORDED VALUE": 74.1}
{"STRUCTURE": "Fc1cccc(COc2ccc(Nc3ncnc4c3CN(CCN3CCOCC3)CC4)cc2Cl)c1", "MEASURED QUANTITY": "inhibition at 10 µM", "RECORDED VALUE": 0}
{"STRUCTURE": "c1ccc(COc2cccc(-c3ccnc4[nH]ccc34)c2)cc1", "MEASURED QUANTITY": "inhibition at 10 µM", "RECORDED VALUE": 0}
{"STRUCTURE": "Cc1ccc(O)cc1N(C)c1ccnc(Nc2cccc(S(N)(=O)=O)c2)n1", "MEASURED QUANTITY": "inhibition at 10 µM", "RECORDED VALUE": 0}
{"STRUCTURE": "COc1cc(Nc2nccc(-c3sc(N)nc3-c3cccc(NC(=O)c4c(F)cccc4F)c3)n2)cc(OC)c1OC", "MEASURED QUANTITY": "inhibition at 10 µM", "RECORDED VALUE": 99.7}

Entry "C[C@@H](Oc1cc(-c2cnc3ccccn23)sc1C(N)=O)c1ccccc1Cl" — recorded inhibition at 10 µM = 0

----------
- ASSAYED TARGET: panel of 203 kinases (Homo sapiens, UniProt Q96L34)
- Construct: purchased DiscoverX (KINOMEscan)
- Sequence (Q96L34 whole entry): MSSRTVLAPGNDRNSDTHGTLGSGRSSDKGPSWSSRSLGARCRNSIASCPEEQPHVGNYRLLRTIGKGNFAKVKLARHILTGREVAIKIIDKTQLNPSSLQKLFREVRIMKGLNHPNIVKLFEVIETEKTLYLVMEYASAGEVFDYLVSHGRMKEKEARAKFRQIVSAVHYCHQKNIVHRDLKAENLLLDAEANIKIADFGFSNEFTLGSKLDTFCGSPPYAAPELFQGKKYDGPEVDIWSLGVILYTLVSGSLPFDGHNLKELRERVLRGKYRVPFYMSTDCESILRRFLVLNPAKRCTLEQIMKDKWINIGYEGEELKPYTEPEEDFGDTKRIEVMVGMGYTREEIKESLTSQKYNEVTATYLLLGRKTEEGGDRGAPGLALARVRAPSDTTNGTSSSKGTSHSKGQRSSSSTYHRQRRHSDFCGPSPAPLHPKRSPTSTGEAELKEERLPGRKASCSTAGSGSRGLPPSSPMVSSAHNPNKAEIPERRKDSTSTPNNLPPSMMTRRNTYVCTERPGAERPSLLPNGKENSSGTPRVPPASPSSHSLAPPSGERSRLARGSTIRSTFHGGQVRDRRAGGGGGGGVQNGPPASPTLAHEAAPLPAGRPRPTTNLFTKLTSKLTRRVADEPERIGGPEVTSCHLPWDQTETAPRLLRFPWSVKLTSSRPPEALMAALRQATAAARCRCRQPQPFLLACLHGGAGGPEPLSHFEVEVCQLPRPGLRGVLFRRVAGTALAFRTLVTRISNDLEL
- EXPERIMENTAL DETAILS: KINOMEscan competitive binding, whole panel
- CONDITION CONTEXT: 10 µM, n=1; kinase MARK4; read-out: Percent inhibition MARK4
MEASURED QUANTITY: inhibition at 10 µM (%)
Just the number please, in %, no unit attached.

Recorded inhibition at 10 µM, per entry:
{"STRUCTURE": "Clc1ccc(Nc2ncc(-c3ccccc3)s2)cc1", "inhibition at 10 µM, %": 0}
{"STRUCTURE": "Fc1cccc(COc2ccc(Nc3ncnc4c3CN(CCN3CCOCC3)CC4)cc2Cl)c1", "inhibition at 10 µM, %": 0}
{"STRUCTURE": "COc1ccc(Nc2nccc(-c3cnn4ncccc34)n2)cc1", "inhibition at 10 µM, %": 67.8}
{"STRUCTURE": "COc1cc(Nc2nccc(-c3sc(N)nc3-c3cccc(NC(=O)c4c(F)cccc4F)c3)n2)cc(OC)c1OC", "inhibition at 10 µM, %": 0}

Entry "c1ccc(COc2cccc(-c3ccnc4[nH]ccc34)c2)cc1" — recorded inhibition at 10 µM = 0

----------
Parameter inhibition at 10 µM: see the listing below.
- ASSAYED TARGET: PKMYT1 (Homo sapiens, UniProt Q99640)
- Construct: purchased DiscoverX (KINOMEscan)
- Sequence (Q99640 whole entry): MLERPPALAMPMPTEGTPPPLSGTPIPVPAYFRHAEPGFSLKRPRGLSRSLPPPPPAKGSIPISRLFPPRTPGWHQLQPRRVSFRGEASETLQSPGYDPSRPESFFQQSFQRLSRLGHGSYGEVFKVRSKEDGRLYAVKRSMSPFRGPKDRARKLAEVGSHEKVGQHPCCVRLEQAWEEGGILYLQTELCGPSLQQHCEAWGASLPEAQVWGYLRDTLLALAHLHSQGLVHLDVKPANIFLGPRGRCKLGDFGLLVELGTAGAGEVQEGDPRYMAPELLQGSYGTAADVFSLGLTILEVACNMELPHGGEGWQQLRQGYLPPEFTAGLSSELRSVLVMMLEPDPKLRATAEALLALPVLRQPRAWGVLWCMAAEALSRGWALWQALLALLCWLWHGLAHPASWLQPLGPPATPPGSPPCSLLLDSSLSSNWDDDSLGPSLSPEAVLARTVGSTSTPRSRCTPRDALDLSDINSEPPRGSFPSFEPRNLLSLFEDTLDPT
- EXPERIMENTAL DETAILS: KINOMEscan competitive binding
- CONDITION CONTEXT: n=1, read-out: Percent inhibition, PKMYT1
Just the number please, in %, no unit attached.

Recorded inhibition at 10 µM, per entry:
{"STRUCTURE": "Nc1ncc2c(-c3ccncc3)c[nH]c2n1", "inhibition at 10 µM / %": 0}
{"STRUCTURE": "COc1cc(Nc2nccc(-c3sc(N)nc3-c3cccc(NC(=O)c4c(F)cccc4F)c3)n2)cc(OC)c1OC", "inhibition at 10 µM / %": 0}
{"STRUCTURE": "Cc1ccc(O)cc1N(C)c1ccnc(Nc2cccc(S(N)(=O)=O)c2)n1", "inhibition at 10 µM / %": 100}
{"STRUCTURE": "c1ccc(COc2cccc(-c3ccnc4[nH]ccc34)c2)cc1", "inhibition at 10 µM / %": 0}
{"STRUCTURE": "C[C@@H](Oc1cc(-c2cnc3ccccn23)sc1C(N)=O)c1ccccc1Cl", "inhibition at 10 µM / %": 81.5}
{"STRUCTURE": "Fc1cccc(COc2ccc(Nc3ncnc4c3CN(CCN3CCOCC3)CC4)cc2Cl)c1", "inhibition at 10 µM / %": 0}
{"STRUCTURE": "CN1CCN(c2ccc(Nc3nccc(-c4cnn5ncccc45)n3)cc2C#N)CC1", "inhibition at 10 µM / %": 0}
{"STRUCTURE": "Cc1ccc(O)cc1Nc1ccnc(Nc2cccc(C(N)=O)c2)n1", "inhibition at 10 µM / %": 97.9}
{"STRUCTURE": "COc1ccc(Nc2nccc(-c3cnn4ncccc34)n2)cc1", "inhibition at 10 µM / %": 0}

Let us examine a further case.
Entry "Clc1ccc(Nc2ncc(-c3ccccc3)s2)cc1" — recorded inhibition at 10 µM = 0

----------
Parameter inhibition at 10 µM: see the listing below.
- ASSAYED TARGET: CLK2 (Homo sapiens, UniProt P49760)
- Construct: purchased DiscoverX (KINOMEscan)
- Sequence (P49760 whole entry): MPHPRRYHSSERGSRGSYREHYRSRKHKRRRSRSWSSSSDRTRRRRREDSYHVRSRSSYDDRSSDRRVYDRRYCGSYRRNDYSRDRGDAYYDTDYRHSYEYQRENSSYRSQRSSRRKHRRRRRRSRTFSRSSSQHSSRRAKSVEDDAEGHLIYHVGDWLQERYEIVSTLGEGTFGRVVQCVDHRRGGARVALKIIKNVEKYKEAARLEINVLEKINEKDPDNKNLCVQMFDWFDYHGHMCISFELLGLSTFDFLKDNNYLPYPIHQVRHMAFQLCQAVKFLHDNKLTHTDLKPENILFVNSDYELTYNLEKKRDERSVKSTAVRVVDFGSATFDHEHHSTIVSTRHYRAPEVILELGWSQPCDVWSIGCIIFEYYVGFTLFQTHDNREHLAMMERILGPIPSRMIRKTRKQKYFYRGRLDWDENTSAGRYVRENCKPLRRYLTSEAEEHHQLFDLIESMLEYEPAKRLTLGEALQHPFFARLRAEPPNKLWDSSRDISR
- EXPERIMENTAL DETAILS: KINOMEscan competitive binding
- CONDITION CONTEXT: 10 µM, n=1; kinase CLK2; read-out: Percent inhibition CLK2
Just the number please, in %, no unit attached.

{"COMPOUND": "Cc1ccc(O)cc1Nc1ccnc(Nc2cccc(C(N)=O)c2)n1 [Compound 3]", "UNIT ANNOTATION": "%", "inhibition at 10 µM": 91.5}

// returns inhibition at 10 µM for c1ccc(COc2cccc(-c3ccnc4[nH]ccc34)c2)cc1 [Compound 9] with CLK2 (Homo sapiens, UniProt P49760); value = 0

// returns inhibition at 10 µM for COc1ccc(Nc2nccc(-c3cnn4ncccc34)n2)cc1 [Compound 2] with CLK2 (Homo sapiens, UniProt P49760); value = 99.9

// returns inhibition at 10 µM for Clc1ccc(Nc2ncc(-c3ccccc3)s2)cc1 [Compound 10] with CLK2 (Homo sapiens, UniProt P49760); value = 0

// returns inhibition at 10 µM for Nc1ncc2c(-c3ccncc3)c[nH]c2n1 [Compound 11] with CLK2 (Homo sapiens, UniProt P49760); value = 99.9

// returns inhibition at 10 µM for Cc1ccc(O)cc1N(C)c1ccnc(Nc2cccc(S(N)(=O)=O)c2)n1 [Compound 4] with CLK2 (Homo sapiens, UniProt P49760); value = 84.5

----------
- ASSAYED TARGET: TRKB (Homo sapiens)
- Construct: purchased DiscoverX (KINOMEscan)
- Sequence (Q16620 32-822): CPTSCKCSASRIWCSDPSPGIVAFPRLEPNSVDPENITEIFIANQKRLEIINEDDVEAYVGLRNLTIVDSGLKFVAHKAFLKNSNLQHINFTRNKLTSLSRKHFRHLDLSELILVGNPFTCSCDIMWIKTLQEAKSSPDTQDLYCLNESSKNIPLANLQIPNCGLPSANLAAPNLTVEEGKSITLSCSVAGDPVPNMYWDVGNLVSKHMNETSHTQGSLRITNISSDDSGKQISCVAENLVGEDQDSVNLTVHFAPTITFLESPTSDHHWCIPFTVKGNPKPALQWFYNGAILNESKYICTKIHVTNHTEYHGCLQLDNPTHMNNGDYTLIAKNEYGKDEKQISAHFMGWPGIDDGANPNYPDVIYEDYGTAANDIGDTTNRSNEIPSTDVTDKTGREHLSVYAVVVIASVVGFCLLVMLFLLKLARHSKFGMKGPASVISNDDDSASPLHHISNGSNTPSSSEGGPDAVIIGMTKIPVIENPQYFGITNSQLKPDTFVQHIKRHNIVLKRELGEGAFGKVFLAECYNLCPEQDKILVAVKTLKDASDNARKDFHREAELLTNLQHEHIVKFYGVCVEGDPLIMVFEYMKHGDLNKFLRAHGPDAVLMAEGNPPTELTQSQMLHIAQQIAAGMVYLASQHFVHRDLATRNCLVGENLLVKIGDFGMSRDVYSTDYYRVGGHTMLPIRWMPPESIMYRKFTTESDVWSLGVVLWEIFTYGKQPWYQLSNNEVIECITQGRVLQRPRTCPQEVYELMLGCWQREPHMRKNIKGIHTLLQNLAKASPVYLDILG
- EXPERIMENTAL DETAILS: KINOMEscan competitive binding
- CONDITION CONTEXT: n=1, read-out: Percent inhibition, TRKB
Parameter inhibition at 10 µM: see the listing below.
Remember to put the unit after the number in your answer.

Recorded inhibition at 10 µM, per entry:
{"STRUCTURE": "Cc1ccc(O)cc1N(C)c1ccnc(Nc2cccc(S(N)(=O)=O)c2)n1", "RECORDED VALUE": "91.7%"}
{"STRUCTURE": "C[C@@H](Oc1cc(-c2cnc3ccccn23)sc1C(N)=O)c1ccccc1Cl", "RECORDED VALUE": "0%"}
{"STRUCTURE": "COc1cc(Nc2nccc(-c3sc(N)nc3-c3cccc(NC(=O)c4c(F)cccc4F)c3)n2)cc(OC)c1OC", "RECORDED VALUE": "0%"}
{"STRUCTURE": "Nc1ncc2c(-c3ccncc3)c[nH]c2n1", "RECORDED VALUE": "0%"}
{"STRUCTURE": "COc1ccc(Nc2nccc(-c3cnn4ncccc34)n2)cc1", "RECORDED VALUE": "0%"}
{"STRUCTURE": "c1ccc(COc2cccc(-c3ccnc4[nH]ccc34)c2)cc1", "RECORDED VALUE": "0%"}
{"STRUCTURE": "Fc1cccc(COc2ccc(Nc3ncnc4c3CN(CCN3CCOCC3)CC4)cc2Cl)c1", "RECORDED VALUE": "0%"}
{"STRUCTURE": "Clc1ccc(Nc2ncc(-c3ccccc3)s2)cc1", "RECORDED VALUE": "0%"}
{"STRUCTURE": "Cc1ccc(O)cc1Nc1ccnc(Nc2cccc(C(N)=O)c2)n1", "RECORDED VALUE": "0%"}

Let us examine a further case.
Entry "CN1CCN(c2ccc(Nc3nccc(-c4cnn5ncccc45)n3)cc2C#N)CC1" — recorded inhibition at 10 µM = 96.5%
